assay: Cytotoxic concentration required to cause microscopically detectable alteration of normal cell morphology of E6SM cells; assay type: cell-based; details: human, read-out: CC50
Property: MCC; scope: individual compounds
endpoint: MCC

> print(dat)
                                    compound  endpoint     reported
 1          Nc1nc2c(ncn2COC(CO)CO)c(=O)[nH]1       MCC  > 100 µg/mL
 2  Cc1ccn2c(CSCC(O)CO)cnc2c1 (stereo unspecified)       MCC  > 400 µg/mL
 3  O=c1[nH]c(=O)n([C@H]2C[C@H](O)[C@@H](CO)O2)cc1/C=C/Br       MCC  > 400 µg/mL
 4      Cc1c(Br)c(C)n2c(CSCc3ccccc3)cnc2c1Br       MCC   > 40 µg/mL
 5  NC(=O)c1ncn([C@@H]2O[C@H](CO)[C@@H](O)[C@H]2O)n1       MCC  > 400 µg/mL
 6                    Cc1ccn2c(CSCCCO)cnc2c1       MCC  > 100 µg/mL
 7                 COC(=O)c1nc2ccccn2c1CSCCO       MCC  > 400 µg/mL
 8              Nc1nc2c(ncn2COCCO)c(=O)[nH]1       MCC  > 400 µg/mL
 9               Cc1c(Br)cn2c(CSCCO)cnc2c1Br       MCC  > 200 µg/mL
10  Cc1ccn2c(CSCC(C)O)cnc2c1 (stereo unspecified)       MCC  > 400 µg/mL
11  CC(O)CSCc1cnc2ncccn12 (stereo unspecified)       MCC  > 400 µg/mL
